Molecular target: Tyrosine-protein kinase ABL1 (Homo sapiens);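 further: reported values are mean percent inhibition of ABL1 kinase activity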
Details: at 1 µM
Below, each of the molecules is paired with its reported inhibition value.
Use % as the unit, but write only the number.

CC(C)COC(=O)c1ccc2c(c1)/C(=C/Nc1ccc(S(N)(=O)=O)cc1)C(=O)N2 36.3
CN1CCC(n2cnc(-c3ccc(F)cc3)c2-c2ccnc(Nc3ccccc3)n2)CC1 11
CC(=O)NCc1cccc(C#Cc2cncnc2Nc2ccc(OCc3cccc(F)c3)c(Cl)c2)c1 2.82
COc1ccc2[nH]c3c4[nH]c5ccc(OC)cc5c4c4c(c3c2c1)C(=O)NC4=O 34

Summary for this molecule, "COc1cccc(-n2ncc3c(N/N=C/c4ccc(F)cc4)ncnc32)c1" : inhibition is 75.8

====

Biological target: Cyclin-dependent kinase 1 (Homo sapiens);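 further: enzyme assay on the CDK1/cyclin B complex, reported as mean percent inhibition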
Conditions: at 0.1 µM
assay.readout: inhibition (%)
Express the result in % but write the number alone.

Cc1cccc(Nc2ncc(-c3ccccc3)o2)c1 3.39
CN(C)CCOc1ccc(-c2nc(-c3ccncc3)c(-c3ccc4c(c3)CC/C4=N\O)[nH]2)cc1 1.59
Cc1ccc2c(-c3ccnc(Nc4ccccc4)n3)c(-c3ccc(F)cc3)nn2n1 -0.23
[O-][S+]1CCN(Cc2ccc(-c3ccc4ncnc(Nc5ccc(OCc6cccc(F)c6)c(Cl)c5)c4c3)o2)CC1 2.01
CCn1cc(-c2ccnc3[nH]ccc23)c(-c2cccc(NC(=O)Nc3ccc(OCc4ccccc4)cc3)c2)n1 0.04
Clc1ccc(-c2nn3ncccc3c2-c2ccnc(Nc3ccccc3)n2)cc1 0.56
c1cc(-c2cnn3nc(N4CCOCC4)ccc23)nc(NC2CC2)n1 2.3
COc1cc2c(cc1Nc1nc(Nc3ccsc3C(N)=O)c3cc[nH]c3n1)N(C(=O)CN(C)C)CCC2(C)C 2.56

# inhibition (molecule: "CC(C)(CO)CNC(=O)c1ccc2c(c1)/C(=N/Nc1ccc(S(N)(=O)=O)cc1)C(=O)N2" ) is 37.2

Field inhibition (entry "CNC(=O)c1cncc(/C=C/c2ccccc2Cl)c1" ) reads 0.47

====

Molecular target: Serine/threonine-protein kinase SIK2 (Homo sapiens) (UniProt Q9H0K1);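 further: mean inhibition of SNF1LK2 (QIK) kinase activity, from the GSK PKIS screening panel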
Sequence (Q9H0K1 whole entry, looked up): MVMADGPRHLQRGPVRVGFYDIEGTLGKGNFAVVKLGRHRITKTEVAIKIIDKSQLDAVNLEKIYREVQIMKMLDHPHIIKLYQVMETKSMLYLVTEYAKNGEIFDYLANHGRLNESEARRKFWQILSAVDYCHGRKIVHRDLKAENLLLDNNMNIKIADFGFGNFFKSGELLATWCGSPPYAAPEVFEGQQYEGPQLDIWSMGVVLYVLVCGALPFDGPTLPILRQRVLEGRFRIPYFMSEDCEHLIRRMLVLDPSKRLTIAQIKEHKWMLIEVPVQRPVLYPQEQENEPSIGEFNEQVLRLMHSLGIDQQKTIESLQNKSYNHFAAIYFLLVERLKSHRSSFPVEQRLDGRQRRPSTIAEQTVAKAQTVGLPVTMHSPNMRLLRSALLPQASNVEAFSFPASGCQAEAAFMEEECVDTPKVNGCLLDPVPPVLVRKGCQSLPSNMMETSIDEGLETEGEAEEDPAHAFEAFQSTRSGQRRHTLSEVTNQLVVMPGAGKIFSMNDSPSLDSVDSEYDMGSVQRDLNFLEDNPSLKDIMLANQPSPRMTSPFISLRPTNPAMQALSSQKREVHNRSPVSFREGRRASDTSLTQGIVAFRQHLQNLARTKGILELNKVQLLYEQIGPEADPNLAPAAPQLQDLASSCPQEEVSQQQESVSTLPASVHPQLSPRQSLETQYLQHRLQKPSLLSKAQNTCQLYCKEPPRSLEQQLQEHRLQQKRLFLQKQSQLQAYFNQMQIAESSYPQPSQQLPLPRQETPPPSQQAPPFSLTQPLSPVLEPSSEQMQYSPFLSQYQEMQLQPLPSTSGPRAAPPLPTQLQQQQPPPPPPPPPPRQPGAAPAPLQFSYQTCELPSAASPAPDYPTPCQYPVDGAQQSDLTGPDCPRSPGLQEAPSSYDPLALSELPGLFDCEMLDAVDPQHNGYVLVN
Settings: at 1 µM
inhibition reference
Please state the figure in %; there is no need to write the unit.

COc1ccc2c(-c3ccnc(Nc4cccc(OC(F)(F)F)c4)n3)cnn2n1 12.1

// recorded inhibition for "COc1ccc(-c2nn3ncccc3c2-c2ccnc(Nc3ccc4c(c3)OCCO4)n2)cc1" : 6.1

Value of inhibition reported for the compound "Nc1ncc(-c2cccc(S(N)(=O)=O)c2)c2scc(-c3ccc(F)c(Cl)c3)c12" is 28.8

// "Clc1ccc(-c2nn3ncccc3c2-c2ccnc(Nc3ccccc3)n2)cc1" : inhibition value = 13.9

Recorded result, "CNC(=O)c1cc(-c2ccc(F)cc2)cc(-c2ccc(S(=O)(=O)N3CCCC3)cc2)c1N" , inhibition: 5.07

Field inhibition (entry "CC(=O)NCc1cccc(C#Cc2cncnc2Nc2ccc(OCc3cccc(F)c3)c(Cl)c2)c1" ) reads 5.8

====

Entries and their measured inhibition follow.
Molecular target: Mitogen-activated protein kinase kinase kinase kinase 2 (Homo sapiens) (UniProt Q12851);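 further: reported value is a mean of MAP4K2 inhibition at 1 µM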
Sequence (Q12851 whole entry): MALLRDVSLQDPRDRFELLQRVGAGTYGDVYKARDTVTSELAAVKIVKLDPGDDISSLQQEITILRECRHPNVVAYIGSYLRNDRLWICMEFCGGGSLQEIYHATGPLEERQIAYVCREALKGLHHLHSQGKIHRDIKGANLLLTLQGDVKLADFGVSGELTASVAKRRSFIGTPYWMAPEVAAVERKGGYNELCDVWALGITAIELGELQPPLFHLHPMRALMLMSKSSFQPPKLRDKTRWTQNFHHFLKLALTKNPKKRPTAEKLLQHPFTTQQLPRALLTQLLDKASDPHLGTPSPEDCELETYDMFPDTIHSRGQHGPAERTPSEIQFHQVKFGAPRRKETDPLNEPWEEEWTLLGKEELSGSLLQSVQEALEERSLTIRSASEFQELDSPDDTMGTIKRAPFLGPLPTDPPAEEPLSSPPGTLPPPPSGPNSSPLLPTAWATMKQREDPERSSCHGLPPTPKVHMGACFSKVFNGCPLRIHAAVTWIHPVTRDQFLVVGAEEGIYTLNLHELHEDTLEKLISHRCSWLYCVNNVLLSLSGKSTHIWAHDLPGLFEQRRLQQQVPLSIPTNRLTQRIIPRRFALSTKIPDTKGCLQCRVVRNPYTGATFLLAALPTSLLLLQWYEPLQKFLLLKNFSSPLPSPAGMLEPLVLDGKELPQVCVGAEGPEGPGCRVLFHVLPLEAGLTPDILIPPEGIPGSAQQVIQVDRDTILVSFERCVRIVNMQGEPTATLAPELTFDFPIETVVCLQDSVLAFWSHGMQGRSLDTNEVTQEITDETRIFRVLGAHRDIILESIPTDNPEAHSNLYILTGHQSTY
Settings: at 1 µM
Quick reminder: number only, in %, skip the unit.

Consider the worked cases shown below.
compound	inhibition / %
CC(C)(CO)CNC(=O)c1ccc2c(c1)/C(=N/Nc1ccc(S(N)(=O)=O)cc1)C(=O)N2	3.15
c1ccc(-c2nc3n(c2-c2ccc4c(c2)OCO4)CCC3)nc1	2.78
CCCN(CCS(C)(=O)=O)Cc1ccc(-c2ccc3ncnc(Nc4ccc(OCc5cccc(F)c5)c(Cl)c4)c3c2)o1	2.9

Record "CCCN1CCC(c2ccc(Nc3nc(Nc4cc(F)ccc4C(N)=O)c4cc[nH]c4n3)c(OC)c2)CC1" . Reported inhibition: 51.6

Item: "Fc1ccc(-c2cc(-c3c[nH]nc3-c3ccccn3)ccn2)cc1" | inhibition: 1.6

For "CN1CCC(n2cnc(-c3ccc(F)cc3)c2-c2ccnc(Nc3ccccc3)n2)CC1" the compound record lists inhibition as 10.3

Entry "CCn1c(-c2nonc2N)nc2cnc(Oc3cccc(NC(=O)c4ccc(N(C)C)cc4)c3)cc21" — recorded inhibition = 3.56

Form: compound = "COc1ccc(-c2cc(-c3c[nH]nc3-c3ccccn3)ccn2)cc1" ; inhibition = 2.15

GET /value?item= "CCn1c(-c2nonc2N)nc2c(C#CC(C)(C)O)ncc(OC3CCNCC3)c21" &field=inhibition returns 3.12

Lab note: "Clc1ccc(-c2nn3ncccc3c2-c2ccnc(Nc3ccccc3)n2)cc1" gave inhibition of 5.08

Entry under test: CC1=C(C(=O)Nc2cc(Cl)c3[nH]ncc3c2)C(c2ccc(C(F)(F)F)cc2)CC(=O)N1 (stereo unspecified) . Its inhibition was 3.92

The reported inhibition of the compound "Fc1ccc(-c2nn3ccccc3c2-c2ccncc2)cc1" was 7.42

Attribution: ChEMBL document CHEMBL1961873
